# study_system: Leukotriene B4 receptor 1 (Homo sapiens, UniProt Q15722)
# Sequence (Q15722 whole entry): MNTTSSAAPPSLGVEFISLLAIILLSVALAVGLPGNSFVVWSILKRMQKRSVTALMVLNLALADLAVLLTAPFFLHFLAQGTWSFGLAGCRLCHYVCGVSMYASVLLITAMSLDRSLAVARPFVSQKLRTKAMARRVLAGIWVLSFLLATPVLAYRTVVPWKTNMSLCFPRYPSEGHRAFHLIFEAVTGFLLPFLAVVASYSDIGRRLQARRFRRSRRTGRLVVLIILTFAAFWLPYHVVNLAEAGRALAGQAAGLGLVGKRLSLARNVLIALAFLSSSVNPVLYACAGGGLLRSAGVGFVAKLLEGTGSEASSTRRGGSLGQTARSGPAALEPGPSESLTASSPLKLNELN
# test_description: Compound was evaluated for inhibitory activity against LTB4 receptor in human neutrophil membranes using [3H]- LTB4 as radioligand
pIC50: −log10 of the molar value.
measurement_kind: pIC50

Examples from the recorded data:
O=C(O)C[C@]1(O)CCC[C@H](/C=C/C(O)CCCCc2ccccc2)C1 (stereo in doubt; 1d2): 4.15
CCCCCCCCC(O)/C=C/[C@H]1CCC[C@@](O)(CC(=O)O)C1 (stereo partly specified): 6.00
CCCCCC(O)/C=C/[C@H]1CCC[C@@](O)(CCCC(=O)O)C1 (stereo partly specified): 4.15

I. O=C(O)C[C@]1(O)CCC[C@H](/C=C/C(O)CCCCc2ccccc2)C1 (stereo in doubt; 1d)
II. O=C(O)C[C@]1(O)CCC[C@H](/C=C/C(O)CCCCc2ccccc2)C1 (stereo in doubt; 1d1)
*Q* Endpoint returns the identifier whose pIC50 is numerically larger, either I or II . Write down the label of the entry you select.
*A* II

====

# study_system: Leukotriene B4 receptor 1 (Homo sapiens)
# test_description: Compound was evaluated for relative binding affinity against LTB4 receptor in human neutrophil membranes using [3H]- LTB4 as radioligand relative to leukotriene B4
# Type: cell membranes
measurement_kind: relative binding affinity (RBA)

O=C(O)C[C@]1(O)CCC[C@H](/C=C/C(O)CCCCc2ccccc2)C1 (stereo in doubt; 1d): 0.01

a. CCCCCCCCC(O)/C=C/[C@H]1CCC[C@@](O)(CC(=O)O)C1 (some centres undefined)
b. CCCCCC(O)/C=C/[C@H]1CCC[C@@](O)(CC(=O)O)C1 (some centres undefined)
c. O=C(O)C[C@]1(O)CCC[C@H](/C=C/C(O)CCCCc2ccccc2)C1 (stereo in doubt; 1d1)
*Q* # sort list by recorded relative binding affinity (RBA), greatest to least Use the labels to give the ranking in the order requested.
*A* c, a, b
(c: 0.025, a: 0.008, b: 0.001)

Where these numbers come from: ChEMBL document CHEMBL1129702
